TARGET_ENTITY: rat superior cervical ganglion P2X receptor (clone 3) (Rattus norvegicus, UniProt P51577)
Construct: The insert appeared to be a full length cDNA; expressed in transfected cells; host or cells: HEK293 cells transfected with pcDNA3 construct p464 (also oocytes injected with in vitro transcribed RNA)
Sequence (P51577 1-388): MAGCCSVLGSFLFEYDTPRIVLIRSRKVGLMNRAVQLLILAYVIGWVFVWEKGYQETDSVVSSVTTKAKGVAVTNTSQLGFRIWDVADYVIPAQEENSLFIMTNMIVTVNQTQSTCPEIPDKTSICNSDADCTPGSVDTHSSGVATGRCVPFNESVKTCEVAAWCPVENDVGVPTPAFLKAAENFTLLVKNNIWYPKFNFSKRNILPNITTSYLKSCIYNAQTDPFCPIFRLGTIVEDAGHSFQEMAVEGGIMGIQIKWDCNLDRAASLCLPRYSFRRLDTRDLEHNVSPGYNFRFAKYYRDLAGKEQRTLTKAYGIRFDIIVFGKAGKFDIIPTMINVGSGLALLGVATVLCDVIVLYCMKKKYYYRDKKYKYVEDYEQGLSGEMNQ
PROTOCOL_DETAILS: functional properties of cloned P2X receptors (electrical recordings): clone 3
Format: cell-based
REPORTED_ENDPOINT: EC50 (µM)
Give the value in µM but do not write µM after it.

Lab note: measured EC50 of Nc1ncnc2c1ncn2[C@@H]1O[C@H](COP(=O)([O-])OP(=O)([O-])OP(=O)([O-])[O-])[C@@H](O)[C@H]1O.[Mg+2].[Mg+2] [ATP, adenosine 5'-triphosphate magnesium salt] was 11

###

TARGET_ENTITY: rat vas/human bladder P2X cDNA clone (Homo sapiens, UniProt P51575)
Construct: expressed in transfected cells; host or cells: HEK293 cells (oocytes are also named for the functional characterisation)
Sequence (P51575 whole entry): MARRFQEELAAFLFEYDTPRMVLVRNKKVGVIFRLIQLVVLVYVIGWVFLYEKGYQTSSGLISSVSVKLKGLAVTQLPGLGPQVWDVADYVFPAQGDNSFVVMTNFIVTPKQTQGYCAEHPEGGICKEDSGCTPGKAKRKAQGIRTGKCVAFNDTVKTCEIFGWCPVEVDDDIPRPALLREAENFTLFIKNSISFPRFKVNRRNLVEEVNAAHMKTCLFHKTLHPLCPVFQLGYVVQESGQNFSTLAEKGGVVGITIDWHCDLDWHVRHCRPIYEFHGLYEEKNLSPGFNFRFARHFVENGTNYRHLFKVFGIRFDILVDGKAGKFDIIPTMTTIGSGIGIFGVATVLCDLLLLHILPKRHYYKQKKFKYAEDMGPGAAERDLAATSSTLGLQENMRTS
PROTOCOL_DETAILS: functional properties of cloned P2X receptors (electrical recordings): bladder
Format: cell-based
REPORTED_ENDPOINT: pEC50
When answering, recall that pEC50 equals minus log10 of the concentration in mol/L, and write that number alone.

Lab note: measured pEC50 of Nc1ncnc2c1ncn2[C@@H]1O[C@H](COP(=O)([O-])OP(=O)([O-])OP(=O)([O-])[O-])[C@@H](O)[C@H]1O.[Mg+2].[Mg+2] [ATP, adenosine 5'-triphosphate magnesium salt] was 6.15

###

TARGET_ENTITY: rat superior cervical ganglion P2X receptor (clone 3) (Rattus norvegicus)
Construct: The insert appeared to be a full length cDNA; expressed in transfected cells; host or cells: HEK293 cells transfected with pcDNA3 construct p464 (also oocytes injected with in vitro transcribed RNA)
PROTOCOL_DETAILS: functional properties of cloned P2X receptors (electrical recordings): clone 3
Type: cell-based
CONDITION_SET: Table A, parameter (EC50) not given; read-out: agonist profile, clone 3
pEC50: −log10 of the molar value. Structures can show the parent of a compound that is named as a salt.
REPORTED_ENDPOINT: pEC50

Lab note: measured pEC50 of Nc1ncnc2c1ncn2[C@@H]1O[C@H](COP(=O)(O)CP(=O)(O)OP(=O)(O)O)[C@@H](O)[C@H]1O [α,β-meATP, α,β-methylene ATP lithium salt] was < 4.00
